melting point overview

Solved entries:
CCCCCCCCCCCCCCCCCCCCC(=O)O    74 to 76 °C
CC(C)(C)C(=O)Nc1ccncc1C=O    60 to 64 °C

Now let's try a different one.
Prompt: Look up melting point: NC(=S)Nc1cccc(Cl)c1Cl
Response: 160 to 162 °C

====

melting point overview

O=[N+]([O-])c1ccc(CS(=O)(=O)Cl)cc1    91 to 92 °C
O=CC(Cl)=Cc1ccccc1    20 to 22 °C
COc1ccc(C(N)=O)c(Cl)c1OC    165 to 168 °C
C/C=C/c1ccccc1C(=O)O    81 to 86 °C
Oc1cc(Cl)c(-c2ccccc2)nn1    235 to 236 °C
COc1ccc(Cn2ncc(Cl)c(Cl)c2=O)cc1    117 to 120 °C
O=C1C=CC(=O)[C@@H]2CC3=C(CC4=C(C3)C[C@H]3C(=O)C=CC(=O)[C@H]3C4)C[C@H]12    335 to 340 °C
N#Cc1ccccc1N1CCCCC1    45 to 48 °C

Now let's try a different one.
Prompt: Look up melting point: FC(F)(F)C(F)(F)C(F)(F)C(F)(F)C(F)(F)C(F)(F)C(F)(F)C(F)(F)C(F)(F)C(F)(F)C(F)(F)C(F)(F)I
Response: 99 to 101 °C

====

Parameter measured: melting point

Solved entries:
Cc1ccc(S(=O)(=O)NC(=S)Nc2ccccc2)cc1    148 to 149 °C
CCc1c(C)nc(NC(=O)NS(=O)(=O)c2cccs2)nc1O    179 to 180 °C
COC(=O)c1cc(C)nc(Cl)n1    110 to 111 °C
O=C(O)c1cccc2nsnc12    198 to 200 °C

Prompt: Look up melting point: Nc1cc2[nH]c(=O)c(C(=O)c3ccccc3)cc2cc1C=O
Response: 278 to 279 °C

Prompt: Look up melting point: O=[N+]([O-])c1cccc(-c2nnc3n2NC(/C=C/c2ccccc2)S3)c1 (stereo not drawn)
Response: 190 to 192 °C

Prompt: Look up melting point: N#CC(c1ccc(Cl)nn1)c1c(Cl)cccc1Cl (stereo not drawn)
Response: 124 to 131 °C

Prompt: Look up melting point: O=C(O)C=Cc1c(F)cccc1Cl
Response: 163 to 165 °C

Prompt: Look up melting point: COC(=O)c1coc(CCl)n1
Response: 74 to 76 °C

====

Parameter measured: melting point

Cc1cc(C(=O)O)c(C)n1Cc1ccncc1    171 to 173 °C
COc1ccc(C(N)=S)cc1    148 to 152 °C
CCOc1ncnc2c1cnn2-c1ccccc1    94 to 96 °C

Now let's try a different one.
Prompt: Look up melting point: O=C(O)c1cccc(-n2cccc2)c1
Response: 180 to 181 °C

====

Parameter measured: melting point

Solved entries:
COc1ccc(-n2c(=S)[nH]c(=O)c3cccnc32)cc1    261 to 263 °C
CC1(C)CC(=O)c2cc(-c3ccccc3)n(Cc3ccc(Cl)cc3)c2C1    115 to 117 °C
COc1c(Cl)cccc1Cl    10 to 11 °C
CN(C)c1ccc([N+](=O)[O-])c(N)c1    134 to 139 °C

Now let's try a different one.
Prompt: Look up melting point: Fc1c(F)c(-c2c(F)c(F)c(Br)c(F)c2F)c(F)c(F)c1Br
Response: 113 to 115 °C
